meta.source: paper PMC3218832

The following sequences are listed with their measured binding signal values.
Assayed Target: p52p52 homodimer (Homo sapiens, UniProt Q00653 4-332)
Sequence: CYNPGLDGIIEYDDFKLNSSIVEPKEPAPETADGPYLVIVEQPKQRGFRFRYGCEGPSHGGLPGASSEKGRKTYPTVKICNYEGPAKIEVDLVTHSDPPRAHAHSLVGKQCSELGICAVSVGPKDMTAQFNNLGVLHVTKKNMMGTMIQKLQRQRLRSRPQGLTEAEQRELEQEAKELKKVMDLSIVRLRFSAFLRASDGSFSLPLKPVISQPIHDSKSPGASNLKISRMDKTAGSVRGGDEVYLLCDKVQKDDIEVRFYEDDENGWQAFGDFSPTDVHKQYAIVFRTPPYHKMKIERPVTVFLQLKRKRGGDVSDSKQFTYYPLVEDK
Test Description: protein binding microarray; high values mean tight binding
Condition Description: dsDNA, one strand shown
The response must be a number in z-score with no trailing unit.

Look over these answered cases.
AAAGTCCCCCT; 1.86
AAATACACCCC; 0.0531
CAGAGCTCCCC; -0.163
CAGGTTGTCCT; -0.451
AGGTAGCTCCT; -0.638

What value of binding signal has been recorded for this entry: "CAGAAGATCCT" -0.765

What value of binding signal has been recorded for this entry: "AGGTAGGCCCT" -0.535

What value of binding signal has been recorded for this entry: "CGGAAATCCCT" 1.3

---

Assayed Target: p50p50 homodimer (Homo sapiens, UniProt P19838 7-356)
Sequence (P19838 7-356): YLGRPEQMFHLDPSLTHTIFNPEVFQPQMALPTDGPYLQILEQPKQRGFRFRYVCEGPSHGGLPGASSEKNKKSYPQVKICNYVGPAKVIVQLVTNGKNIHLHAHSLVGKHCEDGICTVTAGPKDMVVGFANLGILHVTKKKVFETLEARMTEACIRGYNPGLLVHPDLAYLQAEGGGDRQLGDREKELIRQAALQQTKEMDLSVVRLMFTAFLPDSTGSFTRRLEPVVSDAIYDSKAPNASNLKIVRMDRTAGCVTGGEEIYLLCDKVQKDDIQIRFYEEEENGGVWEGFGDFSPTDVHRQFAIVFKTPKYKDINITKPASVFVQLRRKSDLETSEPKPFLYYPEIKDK
Test Description: protein binding microarray; high values mean tight binding
Condition Description: dsDNA, one strand shown
The following sequences are listed with their measured binding signal values.
The response must be a number in z-score with no trailing unit.

Look over these answered cases.
CAATTACCCCT; 1.06
AGAGAGGTCCT; -1.58
CAAGGTTCCCC; 1.15
GAGAGGTCCCT; 0.517

What value of binding signal has been recorded for this entry: "CGAATCGCCCT" -1.41

What value of binding signal has been recorded for this entry: "GAGAGACTCCT" -2.14

What value of binding signal has been recorded for this entry: "GGGTTACTCCC" 0.249

---

Assayed Target: RELB subunit;p50 subunit (Homo sapiens;Homo sapiens, UniProt Q01201;P19838 120-401;7-356)
Sequence (Q01201 120-401, chain 1 of 2): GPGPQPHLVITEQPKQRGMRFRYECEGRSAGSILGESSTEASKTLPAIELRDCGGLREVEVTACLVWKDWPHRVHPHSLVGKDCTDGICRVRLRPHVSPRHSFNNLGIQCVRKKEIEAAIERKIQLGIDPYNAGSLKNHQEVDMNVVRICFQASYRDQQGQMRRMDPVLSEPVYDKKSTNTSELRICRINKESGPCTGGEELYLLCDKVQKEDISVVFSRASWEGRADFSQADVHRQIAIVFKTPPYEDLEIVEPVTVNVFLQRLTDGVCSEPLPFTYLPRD
Sequence (P19838 7-356, chain 2 of 2): as the sequence (P19838 7-356) above
Test Description: protein binding microarray; high values mean tight binding
Condition Description: dsDNA, one strand shown
The following sequences are listed with their measured binding signal values.
The response must be a number in z-score with no trailing unit.

Look over these answered cases.
AAGAGGCCCCT; 0.196
CGGAGTATCCC; -0.605
CGGAATCCCCT; 2.43
GGAATGCCCCC; 1.13
CGGTTTACCCC; 0.667
GAGTTAATCCC; -0.125
AAGGTACTCCC; 0.54
GGGGAATTCCC; 3.87

What value of binding signal has been recorded for this entry: "GGAATATCCCT" 0.471

What value of binding signal has been recorded for this entry: "CAATGGGCCCC" -0.379

What value of binding signal has been recorded for this entry: "AAAAACCTCCC" 0.0831

What value of binding signal has been recorded for this entry: "GGAGTTCCCCT" 2

---

The following sequences are listed with their measured binding signal values.
Assayed Target: p52p52 homodimer (Homo sapiens, UniProt Q00653 4-332)
Sequence: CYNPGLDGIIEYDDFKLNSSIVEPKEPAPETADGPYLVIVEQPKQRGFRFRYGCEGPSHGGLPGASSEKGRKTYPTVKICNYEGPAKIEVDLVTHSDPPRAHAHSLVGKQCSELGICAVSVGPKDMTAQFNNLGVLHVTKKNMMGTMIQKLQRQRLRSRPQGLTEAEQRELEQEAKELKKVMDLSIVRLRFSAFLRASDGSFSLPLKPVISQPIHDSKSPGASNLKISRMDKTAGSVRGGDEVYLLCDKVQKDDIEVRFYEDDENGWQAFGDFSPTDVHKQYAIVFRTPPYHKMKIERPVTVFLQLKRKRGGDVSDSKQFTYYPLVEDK
Test Description: protein binding microarray; high values mean tight binding
Condition Description: dsDNA, one strand shown
The response must be a number in z-score with no trailing unit.

What value of binding signal has been recorded for this entry: "AAATGTGCCCC" 0.195
